These entries and their values trace back to paper PMC4157643.

- experiment: in vivo
- measurement_context: male, New Zealand white, rabbit, 15 ug, clearance rate (CL)
quantity_measured: clearance

What measured clearance goes with COc1ccc([C@@H]2CC(=O)c3c(O)cc(O)cc3O2)cc1O ?
0.0086 to 0.0096 mL/min
